Consider the following compounds; for each one, report its IC50.
Target: Human HIF-PHD2 (Homo sapiens, UniProt Q9GZT9)
Construct: FLAG-tagged full length PHD2 expressed in and purified from baculovirus-infected Sf9 cells; FLAG; made in house; host or cells: baculovirus-infected Sf9 cells
Sequence (Q9GZT9 whole entry): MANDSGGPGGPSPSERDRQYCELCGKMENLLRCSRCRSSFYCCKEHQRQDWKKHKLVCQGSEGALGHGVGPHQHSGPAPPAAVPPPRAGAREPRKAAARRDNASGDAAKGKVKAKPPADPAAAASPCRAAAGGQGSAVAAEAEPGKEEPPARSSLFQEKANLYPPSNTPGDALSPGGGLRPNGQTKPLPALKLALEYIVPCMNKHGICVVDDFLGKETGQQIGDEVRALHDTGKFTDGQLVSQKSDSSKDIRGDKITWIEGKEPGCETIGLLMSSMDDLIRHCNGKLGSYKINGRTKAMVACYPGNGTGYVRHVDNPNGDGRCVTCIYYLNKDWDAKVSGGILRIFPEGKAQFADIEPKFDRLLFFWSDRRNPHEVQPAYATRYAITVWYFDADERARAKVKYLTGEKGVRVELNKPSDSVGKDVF
Test: Inhibition of the hydroxylation of a HIF peptide by PHD2 (time resolved fluorescence, 384-well)
Assay type: biochemical
Conditions: FLAG-tagged full length PHD2; 0.2 μM 2-oxoglutarate, 0.5 μM HIF-1α peptide; 45 minutes at room temperature; read-out: Human HIF-PHD2 IC50
Numbers only, in nM.

Example entries and their recorded answers appear below.
Reported IC50 for N#Cc1cc2c3c(c1)c(O)c(C(=O)NCC(=O)O)c(=O)n3CC(c1ccc(C(F)(F)F)nc1)C2 (centres unmarked) [Example 84] : what is it?
0.9

For the compound O=C(O)CNC(=O)c1c(O)c2cccc3c2n(c1=O)C(c1ccc(Br)cc1)CO3 (racemic) [Example 133] , what IC50 is on record?
17

Quick one: IC50 for CS(=O)(=O)c1ccc(C2COc3cccc4c(O)c(C(=O)NCC(=O)O)c(=O)n2c34)cc1 (centres unmarked) [Example 183] ?
15

Dear colleague, I am looking for the recorded IC50 of the following compound: O=C(O)CNC(=O)c1c(O)c2ccc(Br)c3c2n(c1=O)CC(c1ccc(C(F)(F)F)cc1)O3 (centres unmarked) [Example 22]
2.3

Would you mind telling me what IC50 value was observed for O=C(O)CNC(=O)c1c(O)c2c(OC(F)(F)F)ccc3c2n(c1=O)CC(c1ccc(C(F)(F)F)cc1)O3 (single isomer, unassigned) [Example 86] ?
14

# lookup: IC50 of O=C(O)CNC(=O)c1c(O)c2cccc3c2n(c1=O)CC(c1cncs1)C3 (single isomer, unassigned) [Example 50a]
6.7

Look up IC50: O=C(O)CNC(=O)c1c(O)c2cccc3c2n(c1=O)C(c1cncs1)CN3 (centres unmarked) [Example 111]
15

For CS(=O)(=O)c1ccc2c(O)c(C(=O)NCC(=O)O)c(=O)n3c2c1OC(c1ccc(C(F)(F)F)cc1)C3 (single isomer, unassigned) [Example 23] , what is its reported IC50?
1.6

Using the record for N#Cc1cc2c3c(c1)c(O)c(C(=O)NCC(=O)O)c(=O)n3C(c1ccc(C(F)(F)F)cc1)CN2 (centres unmarked) [Example 92] , report its IC50.
3.1

Query (compound): O=C(O)CNC(=O)c1c(O)c2cccc3c2n(c1=O)C(c1ccc(C(F)(F)F)cc1)CN3 (centres unmarked) [Example 106] ; field requested: IC50
27

// each listed compound needs a value for IC50
1. CC(O)c1cc2c3c(c1)c(O)c(C(=O)NCC(=O)O)c(=O)n3C(Cc1ccc(C(F)(F)F)cc1)CO2 (centres unmarked) [Example 35]
2. CC(O)(CO)c1cc2c3c(c1)c(O)c(C(=O)NCC(=O)O)c(=O)n3C(Cc1ccc(C(F)(F)F)cc1)CO2 (centres unmarked) [Example 8]
3. O=C(O)CNC(=O)c1c(O)c2cc(F)cc3c2n(c1=O)C(c1ccc(C(F)(F)F)cc1)CN3 (centres unmarked) [Example 118]
4. N#Cc1cc2c3c(c1)c(O)c(C(=O)NCC(=O)O)c(=O)n3CCC2 [Example 48]
5. N#Cc1ccc2c(O)c(C(=O)NCC(=O)O)c(=O)n3c2c1NC(c1ccc(C(F)(F)F)cc1)C3 (centres unmarked) [Example 114]
6. CC(C)(O)c1cc2c3c(c1)c(O)c(C(=O)NCC(=O)O)c(=O)n3C(Cc1ccc(C(F)(F)F)cc1)CO2 (centres unmarked) [Example 36]
7. O=C(O)CNC(=O)c1c(O)c2ccnc3c2n(c1=O)CC(c1ccc(C(F)(F)F)cc1)O3 (centres unmarked) [Example 51]

12
30
5.7
2.6
1
17
13

Dear colleague, could you send me IC50 for each of the items below? Thanks.
1. COc1cc2c3c(c1)c(O)c(C(=O)NCC(=O)O)c(=O)n3CC(c1ccc(C(F)(F)F)cc1)O2 (centres unmarked) [Example 81]
2. CN1CC(c2cncs2)n2c(=O)c(C(=O)NCC(=O)O)c(O)c3cccc1c32 (centres unmarked) [Example 113]

1. 2.9
2. 125
